The reported numbers originate from ChEMBL document CHEMBL5608113.

tested on: Colon cancer organoid; test: Targeting of F14 CAF-induced therapy resistance in O23 CRC organoid-stroma co-culture. Cell viability is reported with Gefitinib.; format: functional, Homo sapiens; conditions: Homo sapiens, Concentration 1 uM; read-out: Cell Viability
Reported endpoint: viability at 1 µM (%)

> print(dat)
                                   compound              tested.on  data.value
1  CS(=O)(=O)N1CCCC(NC(=O)[C@H](CCC2CCCCC2)NC(=O)c2ccc(CNC(=O)c3cnc4ccccn34)cc2)C1 (some centres undefined) [SR-302]  Colon cancer organoid        69.8
2  O=C(c1ccc(F)cc1)N1CC(COc2ccc(Br)cc2)(C(=O)O)C1 [PF-04475866]  Colon cancer organoid        66.8
3  Nc1c(C(=O)NCc2ccc(C(=O)NCCCC3CCCCC3)cc2)cnn1-c1ccccc1 [SR-318]  Colon cancer organoid        58.8
4  CNCc1ccccc1-c1csc([C@H](C)Nc2nc(C)nc3cc(OC)c(OC)cc23)c1 [BAY-294]  Colon cancer organoid        46.4

###

tested on: Colon cancer organoid; assay: Targeting of F14 CAF-induced therapy resistance in O23 CRC organoid-stroma co-culture. Cell viability is reported with Gefitinib.; format: functional, Homo sapiens; details: Homo sapiens, Concentration 10 uM; read-out: Cell Viability
Attribute: viability at 10 µM

Compound	viability at 10 µM
NS(=O)(=O)c1cc(NC(=O)Cc2ccccc2)ccc1Oc1cccc(Cl)c1	48.6%
CO[C@H]1CNC[C@@H](OCC2CCC(F)(F)CC2)[C@@H]1Nc1ncc(-c2cncc(C)c2)c2cc(C)c(=O)[nH]c12	78.8%
Cc1c(NC(=O)COc2ccc(Cl)cc2C(=O)c2cc(F)cc(C(F)(F)F)c2)ccc(C(=O)O)c1F	79.4%
C=CC(=O)Nc1ccc2[nH]c(=O)n(C3CCN(Cc4ccc(-c5ccc6c(c5)NC(=O)CO6)cc4)CC3)c2c1	55.4%
CO[C@H]1CC[C@H](CNc2ccc(S(=O)(=O)NC(=O)c3ccc(N4CCN(CC5=C(c6ccc(Cl)cc6)CC(C)(C)CC5)CC4)cc3Oc3cnc4[nH]ccc4c3)cc2[N+](=O)[O-])CC1	30.6%
Cn1cc(-c2ccc3occ(-c4ccccc4-c4ccccc4)c3n2)cn1	89.5%
COc1ccccc1C(=O)Nc1cc2c(cc1N1CCNCC1C)n(C)c(=O)n2C (configuration not stated)	56.5%

###

test system: Colon cancer organoid; test: Targeting of F14 CAF-induced therapy resistance in O14 CRC organoid-stroma co-culture. Cell viability is reported without Gefitinib.; format: functional, Homo sapiens; conditions: Homo sapiens, Concentration 10 uM; read-out: Cell Viability
# viability at 10 µM per entry

Compound	viability at 10 µM / %
Cc1sc2c(c1C)C(c1ccc(Cl)cc1)=N[C@@H](CC(=O)NCCCCCCCCNC(=O)COc1cccc3c1C(=O)N(C1CCC(=O)NC1=O)C3=O)c1nnc(C)n1-2 (stereo partly drawn)	3.56
CC(C)(O)c1cncc(-c2nc3ccc(F)cc3n2C2CC2)c1 [MSD-CYP11B2]	107
COc1ccc(Cn2ccc3ccc(C(=O)NO)cc32)cc1	75.4
CCn1c(-c2nc3cc(C(=O)N4CCCC(N)C4)ccc3n2C)cc2ccccc21 (stereo not drawn)	76.9
COc1cc2c(cc1-c1c(C)noc1C)ncc1[nH]c(=O)n([C@H](C)c3ccccn3)c12	30.2
CN(C)C(=O)c1ccc(-c2cc(C(=O)N(C)C3CCCC3)no2)cc1O	103
Cc1c(Nc2ccc(S(=O)(=O)N3CCN(C)CC3)cc2F)nc2ccc(Nc3cnn(C4CC4)c3)cn2c1=O	68.6
CNC(=O)c1cc(C(=O)N[C@H]2[C@@H]3COC[C@@H]32)cc2c1O[C@@H](CF)[C@@H]2c1ccccc1 [GSK943]	75.9

###

tested on: Colon cancer organoid; assay: Targeting of F14 CAF-induced therapy resistance in O23 CRC organoid-stroma co-culture. Cell viability is reported with SN-38.; type: functional, Homo sapiens; details: Homo sapiens, Concentration 10 uM; read-out: Cell Viability
The entries below come with measured viability at 10 µM values attached.
Reported endpoint: viability at 10 µM (%)

> print(dat)
                                entry.smiles  data.value
 1  CN1CCN(C(=O)C(C)(C)c2ccc(C(=O)Nc3cn4cc(-c5ccncc5)ccc4n3)cc2)CC1        18.9
 2  CCS(=O)(=O)c1cc2cc(C[C@](O)(CC(C)(C)c3ccc(F)cc3C(N)=O)C(F)(F)F)[nH]c2cn1         110
 3  O=C(O)[C@@H]1[C@@H](Cn2nnc3ccccc3c2=O)CC[C@H]1C(=O)c1ccc(OCCC2CCOCC2)cc1        78.7
 4  CCCCN(Cc1ccccc1)C(=O)c1ccc(S(=O)(=O)Nc2ccccc2)cc1        63.6
 5  C[C@@H](c1cccc(CN)c1)n1cc(Cl)cc(C(N)=O)c1=N        99.7
 6  CC1=CC(C)=[N+]2C1=C(CCCCc1cn(CC(=O)N3CCc4nc(NC(=O)[C@H]5CCN(C#N)C5)sc4C3)nn1)c1c(C)cc(C)n1[B-]2(F)F        52.6
 7  C[C@H](NC(=O)Nc1cc2[nH]ncc2c(CO)n1)c1ccccn1        62.2
 8  O=C1CCc2cc(Nc3cc(OC4CCOCC4)c([N+](=O)[O-])cc3Cl)ccc2N1        60.5
 9  Nc1ncnc2c1ccn2[C@@H]1O[C@H]([C@H](O)c2ccccc2)[C@@H](O)[C@H]1O        68.9
10  COCCc1ccc(-c2c(C)nc3c(N4CCOCC4)ccnn23)cn1        70.4
11  CCCCN(CCCC)C(=O)CN1C[C@@H](c2cc(OC)c3c(c2)OCO3)[C@H](C(=O)O)[C@H]1CC(C)(C)CCC        88.5
12  O=C(Nc1cccnn1)N1CC(C/C=C/c2cncc(Oc3ccc(C(F)(F)F)cn3)n2)C1        83.6
13  CN(C)C(=O)c1ccc(-c2cc(C(=O)N[C@@H]3CCc4ccccc43)no2)cc1O        64.6
14  CNC(=O)c1cc(C(=O)NC2CC2)cn(Cc2ccccc2)c1=O        66.8
15  Cc1c(NC(=O)c2cc(C(N)=O)nc3cc(F)ccc23)c(C(F)(F)F)nn1Cc1ccc(C#N)cc1        39.6
16  CC(=O)N1CCC(c2ccc(C(=O)NC3=NCCN3)cc2C(F)(F)F)CC1        74.4
17  CC(C)[C@H](C(=O)Nc1ccc(C(=O)NO)cc1)c1ccccc1         131
18           Clc1cccc(-c2nnnn2Cc2cccnc2)c1Cl        77.1

###

tested on: Colon cancer organoid; assay: Targeting of F14 CAF-induced therapy resistance in O23 CRC organoid-stroma co-culture. Cell viability is reported without Gefitinib.; assay type: functional, Homo sapiens; conditions: Homo sapiens, Concentration 10 uM; read-out: Cell Viability

Molecule	Tested on	viability at 10 µM
Cc1noc([C@H]2C[C@@H](c3ccc(C(F)(F)F)cc3)CN(C(=O)N3CCS(=O)(=O)C3)C2)n1 [BAY-448]	Colon cancer organoid	124%
O=C(NC[C@@H]1[C@H]2CN(C(=O)OCc3cc(C(F)(F)F)cc(C(F)(F)F)c3)C[C@@H]12)c1ccc2[nH]nnc2c1 [BI 2545]	Colon cancer organoid	142%
COc1cc(OC)cc(-c2noc(N3CCN(C)C4(CCN(c5ccccc5)CC4)C3)n2)c1	Colon cancer organoid	104%
NS(=O)(=O)c1cc(NC(=O)C2(c3ccccc3Cl)CC2)ccc1Oc1cccc(Cl)c1 [BAY-207]	Colon cancer organoid	78.6%
Cn1c(-c2csc(C3CCN(CC4=NC5N=CC=CC5N4)CC3)n2)nc2ccccc21 (configuration not stated) [BAY-070]	Colon cancer organoid	136%
COc1cc2c(cc1-c1c(C)noc1C)ncc1[nH]c(=O)n([C@H](C)c3ccccn3)c12	Colon cancer organoid	143%
CO[C@H]1CNC[C@@H](OCC2CCC(F)(F)CC2)[C@@H]1Nc1ncc(-c2cncc(C)c2)c2cc(C)c(=O)[nH]c12	Colon cancer organoid	104%
Cc1sc2c(c1C)C(c1ccc(Cl)cc1)=N[C@@H](CC(=O)NCCCCCCCCNC(=O)COc1cccc3c1C(=O)N(C1CCC(=O)NC1=O)C3=O)c1nnc(C)n1-2 (some centres not stated)	Colon cancer organoid	6.5%
O=C(O)c1cc(-c2ccc(C3CCNCC3)cc2)c2ccc(-c3ccc(C(F)(F)F)cc3)cc2c1	Colon cancer organoid	165%
Cn1cc(-c2ccc3occ(-c4ccccc4-c4ccccc4)c3n2)cn1	Colon cancer organoid	153%
Cc1cccc(-c2cnc3occ(-c4ccc(C(=O)O)c(C5CCCC5)c4)c3c2)c1	Colon cancer organoid	111%
CCOCCn1cc(C(=O)Nc2ccc(-n3nc(-c4cccnc4)cc3C(F)(F)F)cn2)ccc1=O [BI 1935]	Colon cancer organoid	98.5%
COc1ccc2c(O[C@@H]3C[C@H]4C(=O)N[C@]5(C(=O)O)CC5/C=C\CCCCC[C@H](NC(=O)OC5CCCC5)C(=O)N4C3)cc(-c3csc(NC(=O)C(C)C)n3)nc2c1C (some centres not stated) [BI 1230]	Colon cancer organoid	141%
CC(C)N(CCCNC(=O)Nc1ccc(C(C)(C)C)cc1)C[C@H]1O[C@@H](n2cc(Br)c3c(N)ncnc32)[C@H](O)[C@@H]1O	Colon cancer organoid	41.3%
COc1cccc2c1c(O)c(C(=O)N(C)c1ccc(C(F)(F)F)cc1)c(=O)n2C [TASQUINIMOD]	Colon cancer organoid	99.2%
CCn1c(-c2nc3cc(C(=O)N4CCCC(N)C4)ccc3n2C)cc2ccccc21 (configuration not stated)	Colon cancer organoid	139%
C[C@H]1CC(=O)Nc2cc(C(=O)NCCC3CC3)ccc2N1C(=O)N1CC2CC2C1 (some centres not stated)	Colon cancer organoid	196%
CC(=O)C1=C(C)N(c2cccc(C(F)(F)F)c2)C(=O)N[C@H]1c1ccc(C#N)nc1 [BAY-677]	Colon cancer organoid	93.5%
CC1=C(C#N)C(c2ccc3[nH]nc(C)c3c2)C(C#N)=C(C)N1 [BAY-474]	Colon cancer organoid	115%
CCC(=O)N[C@@H]1CC[C@H](C(=O)N(C)c2ccc(-c3nc4ccccc4o3)cc2)C1 [BI 99990]	Colon cancer organoid	154%
COc1c(C)cc(NC(=O)c2nn(Cc3ccc(F)cc3)c3c2CN(C(=O)c2ccc[nH]2)C[C@]3(C)C(N)=O)cc1C	Colon cancer organoid	81.4%
CCc1ccccc1C(=O)Nc1n[nH]c2c(C)c(F)c(C3C(C#N)=C(C)N(C)C(C)=C3C#N)cc12 [BAY-3827]	Colon cancer organoid	47.4%
Cc1c(NC(=O)c2ccc(C(C)(C)C)cc2)cccc1-c1cn(C)c(=O)c(Nc2ccc(C(=O)N3CCOCC3)cc2)n1	Colon cancer organoid	56.1%
CCC(=N\O)/C(C)=C/c1ccc(F)c(C)c1 [A-226]	Colon cancer organoid	97.1%
Cc1c(NC(=O)COc2ccc(Cl)cc2C(=O)c2cc(F)cc(C(F)(F)F)c2)ccc(C(=O)O)c1F [BI 2540]	Colon cancer organoid	132%
COc1ccc2c(c1)O[C@@H](c1ccc(OC)c(OC)c1)C[C@H]2NC(=O)C1(c2ccc3c(c2)OC(F)(F)O3)CC1 [A-1596586]	Colon cancer organoid	129%
COc1ccccc1S(=O)(=O)Nc1ccc2c(c1)CN(C)C(=O)N2	Colon cancer organoid	105%
Cc1c(Nc2ccc(S(=O)(=O)N3CCN(C)CC3)cc2F)nc2ccc(Nc3cnn(C4CC4)c3)cn2c1=O	Colon cancer organoid	118%
Cn1nc(C(=O)NCc2ccc(C(=O)O)cc2)cc1-c1ccc2[nH]ccc2c1 [BI 4395]	Colon cancer organoid	124%
Cc1c(C(=O)O)cc(-c2ccc(C3CCNCC3)cc2)c2ccc(-c3ccc(C(F)(F)F)cc3)cc12	Colon cancer organoid	143%
CCOC(=O)CCNc1cc(N2CCc3ccccc3CC2)nc(-c2cccnc2)n1	Colon cancer organoid	140%
CN([C@@H]1CCc2c(CC(=O)O)c3ccccc3n2C1)S(=O)(=O)c1ccc(F)cc1 [MK-7246]	Colon cancer organoid	79.7%
